- assay.target: T1, human CD38 extracellular domain (ECD), tagged (human, Avitag biotinylated (in the ELISAs))
- T1 construct: also called human CD38 ED; biotinylated human CD38
- procedure.details: SPR (Biacore T200), antibody captured on Protein A, CD38 ED as analyte, 1:1 Langmuir fit;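 note: CM5 sensor chip in HBS-P buffer at pH 7.4, antibody loaded at 5 µg/mL, responses corrected against a blank reference flow cell before fitting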
Please provide measured koff for the entries that follow.
Note: unit s⁻¹ is implicit; provide only the numeric part.

Query: Entry R10A2 IgG1 (antibody, V domains shown, chimeric rat-human IgG1) VH: EVQLQQSGPEVGRPGSSVKISCKASGYTFTDSVMNWVKQSPGQGLEWIGWIDPEYGRTDVAEKFKKKATLTADSSSSTAYIYLSGLTSEDTATYFCARTKYNSGYGFPYWGQGSLVTVSS VL: DIVMTQSPTSISISVGERVTMNCKASQNVDSDVDWYQQKTGQSPKLLIYKASNRYTGVPDRFTGSGSGTDFTFTISNMQAEDLAVYYCMQSNTHPRTFGGGTKLELKR has what koff?
Response: 0.000479

Query: Can you share its koff? I mean this binder: X355/02 IgG1 (antibody, V domains shown, human IgG1 from phage-derived Fab) VH: QLQLQESGPGLVKPSETLSLTCTVSGGSISSSSYYWSWIRQHPGKGLEWIGYIYYSGSTNYNPSLKSRVTISVDTLKNQISLRLTSVTAADTAVYYCARVGGAGGWPMDVWGQGTTVTVSS VL: QAVLTQPASLSASPGESARLTCTLPSDINVRYYNIYWYQQKPGSPPRYLLYYYSDSHKGQGSGVPSRFSGSKDVSTNSGILLISGLQSEDEADYYCMTWSSNGSGVFGGGTQLTVLG
Response: 0.000892

Query: Record request: koff value, item R5E8 IgG1 (antibody, V domains shown, chimeric rat-human IgG1) VH: EVQLQQSGPEVGRPGSSVKISCKASGYIFTDYIMHWVKQSPGQGLEWIGWIDPEYGSTDYAEKFKKKATLTADTSSSTAYIQLSSLTSEDTATYFCARVAIITTVASGGFAYWGQGTLVTVSS VL: DIVMTQGALPNPVPSGESASITCQSSESLLHSNGKTYLNWYLQRPGQSPQLLIYWMSTRAAGVSDRFSGSGSGTDFTLTISGVEAEDVGVYYCQQFLEYPPTFGSGTKLEIKR
Response: 0.00118

Query: Entry R5D1 IgG1 (antibody, V domains shown, chimeric rat-human IgG1) VH: EVQLQQSGPEVGRPGSSVKISCKASGYTFTDYIMHWVKQSPGQGLEWIGWIDPEYGRTDYAEKFKKKATLTADTSSSTAYIQLSSLASEDTATYFCARSAHTTGFGFAYWGQGTLVTVSS VL: DIQMTQSPASLSASLGETVTIECRASEDIYSNLAWYQQKPGNSPQLLIYDANSLADGVPSRFSASGSGTQFSLKINSLRSEDVASYFCQQYNNYPYTFGAGTKLELKR : reported koff = ?
Response: 0.000239
